Cited source for all entries: the supplement of paper PMC10307832

# Tested on: NCI-H1915
# EXPERIMENT: relative viability (nuclei count vs DMSO), 5 days (fraction); higher = more cells survive
# TEST PARAMETERS: first compound 0.002 µM
Let's look at some compounds and their measured relative viability.

{"columns": ["COMPOUND", "relative viability"],
 "data": [
  ["CCNC(=O)c1noc(-c2cc(C(C)C)c(O)cc2O)c1-c1ccc(CN2CCOCC2)cc1 [Luminespib] + CC(C)C[C@H](NC(=O)[C@H](Cc1ccccc1)NC(=O)c1cnccn1)B(O)O [Bortezomib] (partner 0.002 µM)", 0.976],
  ["CCNC(=O)c1noc(-c2cc(C(C)C)c(O)cc2O)c1-c1ccc(CN2CCOCC2)cc1 [Luminespib] + Nc1nc2[nH]cc(CCc3ccc(C(=O)N[C@@H](CCC(=O)O)C(=O)O)cc3)c2c(=O)[nH]1 [Pemetrexed] (partner 0.2 µM)", 0.479],
  ["CCNC(=O)c1noc(-c2cc(C(C)C)c(O)cc2O)c1-c1ccc(CN2CCOCC2)cc1 [Luminespib] + CC(=O)c1c(C)c2cnc(Nc3ccc(N4CCNCC4)cn3)nc2n(C2CCCC2)c1=O [Palbociclib] (partner 0.5 µM)", 0.562]
]}

---

# Tested on: LOU-NH91
# EXPERIMENT: relative viability (nuclei count vs DMSO), 5 days (fraction); higher = more cells survive
# TEST PARAMETERS: first compound 0.02 µM
OBSERVATION TYPE: relative viability

{"columns": ["COMPOUND", "RESULT"],
 "data": [
  ["CCNC(=O)c1noc(-c2cc(C(C)C)c(O)cc2O)c1-c1ccc(CN2CCOCC2)cc1 [Luminespib] + C[C@]1(O)C[C@@H](c2nc(-c3ccc4ccc(-c5ccccc5)nc4c3)c3c(N)nccn32)C1 [Linsitinib] (partner 1 µM)", 0.649],
  ["CN1CCN(CCOc2cc(OC3CCOCC3)c3c(Nc4c(Cl)ccc5c4OCO5)ncnc3c2)CC1 [Saracatinib] + Cc1cc(Nc2cc(N3CCN(C)CC3)nc(Sc3ccc(NC(=O)C4CC4)cc3)n2)n[nH]1 [Tozasertib] (partner 0.1 µM)", 0.655],
  ["CCNC(=O)c1noc(-c2cc(C(C)C)c(O)cc2O)c1-c1ccc(CN2CCOCC2)cc1 [Luminespib] + Nc1nc2[nH]cc(CCc3ccc(C(=O)N[C@@H](CCC(=O)O)C(=O)O)cc3)c2c(=O)[nH]1 [Pemetrexed] (partner 0.2 µM)", 0.539],
  ["CCNC(=O)c1noc(-c2cc(C(C)C)c(O)cc2O)c1-c1ccc(CN2CCOCC2)cc1 [Luminespib] + CC(C)C[C@H](NC(=O)[C@H](Cc1ccccc1)NC(=O)c1cnccn1)B(O)O [Bortezomib] (partner 0.002 µM)", 0.518],
  ["CCNC(=O)c1noc(-c2cc(C(C)C)c(O)cc2O)c1-c1ccc(CN2CCOCC2)cc1 [Luminespib] + CC(=O)Nc1cccc(-n2c(=O)n(C3CC3)c(=O)c3c(Nc4ccc(I)cc4F)n(C)c(=O)c(C)c32)c1 [Trametinib] (partner 0.02 µM)", 0.6],
  ["CCNC(=O)c1noc(-c2cc(C(C)C)c(O)cc2O)c1-c1ccc(CN2CCOCC2)cc1 [Luminespib] + Cc1nc(NC(=O)N2CCC[C@H]2C(N)=O)sc1-c1ccnc(C(C)(C)C(F)(F)F)c1 [Alpelisib] (partner 2 µM)", 0.543],
  ["CCNC(=O)c1noc(-c2cc(C(C)C)c(O)cc2O)c1-c1ccc(CN2CCOCC2)cc1 [Luminespib] + COc1cccc2cc(-c3nc([C@H]4CC[C@H](C(=O)O)CC4)n4ncnc(N)c34)[nH]c12 [OSI-027] (partner 0.5 µM)", 0.492],
  ["CCNC(=O)c1noc(-c2cc(C(C)C)c(O)cc2O)c1-c1ccc(CN2CCOCC2)cc1 [Luminespib] + CS(=O)(=O)CCNCc1ccc(-c2ccc3ncnc(Nc4ccc(OCc5cccc(F)c5)c(Cl)c4)c3c2)o1 [Lapatinib] (partner 2 µM)", 0.588]
]}
